Kindly state inhibition at 5 µM for each of the entries shown.
system: Survivin; test: Effect on survivin expression (Table 9); format: cell-based; settings: 5 uM
Numbers only, in %.

>  <compound>
CN1CC(=O)N2[C@@H](CN(Cc3ccc(F)cc3C(F)(F)F)C(=O)[C@@H]2Cc2ccc(O)cc2)N1C(=O)NCc1ccccc1

>  <tested_on>
Survivin

>  <unit_tag>
%

>  <inhibition at 5 µM>
0

$$$$
>  <compound>
CN(C)c1cc(F)c(F)cc1CN1C[C@@H]2N(C(=O)CN(C)N2C(=O)NCc2ccccc2)[C@@H](Cc2ccc(O)cc2)C1=O

>  <tested_on>
Survivin

>  <unit_tag>
%

>  <inhibition at 5 µM>
9

$$$$
>  <compound>
CN(C)c1c(CN2C[C@@H]3N(C(=O)CN(C)N3C(=O)NCc3ccccc3)[C@@H](Cc3ccc(O)cc3)C2=O)cccc1C(F)(F)F

>  <tested_on>
Survivin

>  <unit_tag>
%

>  <inhibition at 5 µM>
0

$$$$
>  <compound>
CC(C)N(C)c1ccccc1CN1C[C@@H]2N(C(=O)CN(C)N2C(=O)NCc2ccccc2)[C@@H](Cc2ccc(O)cc2)C1=O

>  <tested_on>
Survivin

>  <unit_tag>
%

>  <inhibition at 5 µM>
27

$$$$
>  <compound>
CN(C)c1cc(F)ccc1CN1C[C@@H]2N(C(=O)CN(C)N2C(=O)NCc2ccccc2)[C@@H](Cc2ccc(O)cc2)C1=O

>  <tested_on>
Survivin

>  <unit_tag>
%

>  <inhibition at 5 µM>
79

$$$$
>  <compound>
Cc1cccc(CN2C[C@@H]3N(C(=O)CN(C)N3C(=O)NCc3ccccc3)[C@@H](Cc3ccc(O)cc3)C2=O)c1N(C)C

>  <tested_on>
Survivin

>  <unit_tag>
%

>  <inhibition at 5 µM>
0

$$$$

Please give inhibition at 5 µM for each item listed below.
1. CN(C)c1cc(CN2C[C@@H]3N(C(=O)CN(C)N3C(=O)NCc3ccccc3)[C@@H](Cc3ccc(O)cc3)C2=O)ccc1Cl
2. CN1CC(=O)N2[C@@H](CN(Cc3cccc4c3ncn4C)C(=O)[C@@H]2Cc2ccc(O)cc2)N1C(=O)NCc1ccccc1
3. CCN(CC)c1cccc(CN2C[C@@H]3N(C(=O)CN(C)N3C(=O)NCc3ccccc3)[C@@H](Cc3ccc(O)cc3)C2=O)c1
4. CN1CC(=O)N2[C@@H](Cc3ccc(O)cc3)C(=O)N(Cc3cccc4ccccc34)C[C@@]2(C)N1C(=O)NCc1ccccc1

[0, 45, 0, 100]

Please give inhibition at 5 µM for each item listed below.
1. CN1CC(=O)N2[C@@H](CN(Cc3ccc(Cl)c4cccnc34)C(=O)[C@@H]2Cc2ccc(O)cc2)N1C(=O)NCc1ccccc1
2. CN1CC(=O)N2[C@@H](CN(Cc3cccc4cnn(C)c34)C(=O)[C@@H]2Cc2ccc(O)cc2)N1C(=O)NCc1ccccc1
3. CN1CC(=O)N2C(Cc3ccc(O)cc3)C(=O)N(Cc3ccc(F)cc3F)CC2N1C(=O)NCc1ccccc1 (stereo not shown)
4. CN1CC(=O)N2[C@@H](CN(Cc3c(Cl)ccc4cccnc34)C(=O)[C@@H]2Cc2ccc(O)cc2)N1C(=O)NCc1ccccc1

1. 86
2. 82
3. 51
4. 0

* * *

system: Survivin; assay: Effect on survivin expression (Table 9); type: cell-based; conditions: 25 uM
metric_name: inhibition at 25 µM (%)
Give bare numbers, in %.

Some solved entries appear below for comparison.
>  <entry_smiles>
CC(C)N(C)c1ccccc1CN1C[C@@H]2N(C(=O)CN(C)N2C(=O)NCc2ccccc2)[C@@H](Cc2ccc(O)cc2)C1=O

>  <tested_on>
Survivin

>  <reported_measurement>
98

$$$$
>  <entry_smiles>
CN(C)c1c(CN2C[C@@H]3N(C(=O)CN(C)N3C(=O)NCc3ccccc3)[C@@H](Cc3ccc(O)cc3)C2=O)cccc1C(F)(F)F

>  <tested_on>
Survivin

>  <reported_measurement>
91

$$$$
>  <entry_smiles>
Cc1ccc(N(C)C(C)C)c(CN2C[C@@H]3N(C(=O)CN(C)N3C(=O)NCc3ccccc3)[C@@H](Cc3ccc(O)cc3)C2=O)c1

>  <tested_on>
Survivin

>  <reported_measurement>
99

$$$$
>  <entry_smiles>
Cc1cccc(CN2C[C@@H]3N(C(=O)CN(C)N3C(=O)NCc3ccccc3)[C@@H](Cc3ccc(O)cc3)C2=O)c1N(C)C

>  <tested_on>
Survivin

>  <reported_measurement>
68

$$$$
>  <entry_smiles>
CN(C)c1ccc(Cl)cc1CN1C[C@@H]2N(C(=O)CN(C)N2C(=O)NCc2ccccc2)[C@@H](Cc2ccc(O)cc2)C1=O

>  <tested_on>
Survivin

>  <reported_measurement>
93

$$$$

Please give inhibition at 25 µM for each item listed below.
1. CN(C)c1cc(CN2C[C@@H]3N(C(=O)CN(C)N3C(=O)NCc3ccccc3)[C@@H](Cc3ccc(O)cc3)C2=O)ccc1Cl
2. CN1CC(=O)N2[C@@H](CN(Cc3cccc4cn[nH]c34)C(=O)[C@@H]2Cc2ccc(O)cc2)N1C(=O)NCc1ccccc1

[92, 97]

// data source = patent US7671054B1
